# System: SK-MEL-5 melanoma
# EXPERIMENT: NCI-60 one-dose screen, 48 h
# MEASUREMENT_CONTEXT: 10 µM unless noted
This is part of a sample that, as a whole, favours compounds with a hit. Of some 83,000 tested, about 20% had one in any assay. Calls of active or inactive are those of the source. How the source made its calls: active means growth percent below 10; inactive means the rest.
Outcome (select one): YES for active, NO for inactive

See these solved cases before continuing.
Hi, do you know how COC(=O)[C@H](Cc1c[nH]c2ccccc12)NC(=O)[C@@H](OC)[C@@H]1Cc2cc3cc(OC4CC(OC5CC(O)C(O)C(C)O5)C(O)C(C)O4)c(C)c(O)c3c(O)c2C(=O)[C@H]1OC1CC(OC2CC(OC3CC(C)(O)C(O)C(C)O3)C(O)C(C)O2)C(O)C(C)O1 (stereo partly specified) came out in this test? YES

Tell me the assay call for `COC(=O)[C@@]1(C)CC[C@]2(C)CC[C@]3(C)C4=CC(=O)c5c(cc(O)c(O)c5C)[C@]4(C)CC[C@@]3(C)[C@@H]2C1` please. YES

Please indicate how the test categorized `N#CCCNc1ccccc1` . NO

Just curious, what result did `CC1(C)[C@H](O)[C@H](F)C[C@@]2(C)Oc3ccc(C(=O)Nc4ccc5c(c4)NC(=O)C54CCN(CCCCC#N)CC4)cc3C[C@H]12` get here? YES

I'd appreciate the recorded outcome for NC1CC2CCCCC2CC1(O)c1ccccc1 (stereo unspecified) from this test. NO

What call does the record list for `COC(=O)CC[C@H](Cc1ccccc1)NC(=O)c1csc([C@@H](C[C@H](C(C)C)N(C)C(=O)[C@@H](NC(=O)[C@H]2CCCCN2C)C(C)C)OC(C)=O)n1` ? YES

// param item: `CCn1cnc2c(Nc3cccc(Cl)c3)nc(N[C@@H]3CCCC[C@@H]3N)nc21` ; yields the recorded call YES

Given `CCCCCCCC[N+](C)(CCCCCCCC)CCCCCCCC` , state the outcome it received in this test. YES

More entries:
I'd appreciate the recorded outcome for `O=C(N/N=C/c1ccc(N(CCCl)CCCl)cc1)c1cccc2ccccc12` from this test. NO

Query: recorded result category for NC(=S)c1cn(C2OC(CO)C(O)C2O)c2ncnc(N)c12 (stereo unspecified) in this test YES

Just curious, what result did `COc1cc(/C=C\c2cc(OC)c(OC)c(OC)c2)cc(N/C=C\C(=O)c2cc(OC)c(OC)c(OC)c2)c1OC` get here? YES
